Just for reference, paper PMC9186362 is where these values come from.

Reported remaining activity at 1 µM is given for each of the following compounds.
# target.system: HsGSK3β (Homo sapiens)
# Sequence (P49841 whole entry): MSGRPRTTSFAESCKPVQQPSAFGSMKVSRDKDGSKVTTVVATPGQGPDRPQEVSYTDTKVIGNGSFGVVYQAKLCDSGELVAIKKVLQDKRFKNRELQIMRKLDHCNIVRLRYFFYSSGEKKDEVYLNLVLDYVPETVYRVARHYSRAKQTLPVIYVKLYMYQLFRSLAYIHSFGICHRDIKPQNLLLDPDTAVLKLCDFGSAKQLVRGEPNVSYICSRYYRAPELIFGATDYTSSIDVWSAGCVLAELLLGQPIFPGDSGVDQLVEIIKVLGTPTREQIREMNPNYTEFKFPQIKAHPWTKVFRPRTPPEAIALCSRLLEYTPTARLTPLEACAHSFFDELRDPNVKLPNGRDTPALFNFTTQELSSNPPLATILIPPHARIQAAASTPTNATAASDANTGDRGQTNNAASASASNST
# experimental.details: ADP-Glo kinase assay
# Format: biochemical, Homo sapiens (Hs)
# conditions: mean n = 2, % of maximum activity of DMSO control, read-out: % Residual activity at 1 μM GSK3β
Return type: number; implicit unit %.

- COc1ccc2[nH]c3c(=O)[nH]c4ccc(O)cc4c3c2c1: 20

Please find the next compound below.
Any idea what its remaining activity at 1 µM is? The compound is COc1ccc2[nH]c3c(=O)[nH]c4ccc(N)cc4c3c2c1
39

* * *

So I've got IC50 readings for RnDYRK1A (Rattus norvegicus), take a look.
Return type: number; implicit unit nM.

• COc1ccc2[nH]c3c(=O)[nH]c4ccc(NC(C)=O)cc4c3c2c1 = 280
• COc1ccc2c(c1)c1c3cc(O)ccc3[nH]c(=O)c1n2C = 131
• COc1ccc2[nH]c3c(=O)[nH]c4cc(O)ccc4c3c2c1 = 97
• COc1ccc2[nH]c3c(=O)[nH]c4ccc(O)cc4c3c2c1 = 130

Any idea what its IC50 is? The molecule is COc1ccc2[nH]c3c(=O)[nH]c4ccc(N)cc4c3c2c1
226
